biological target: Fes (UniProt P07332); assay: phosphorylation enrichment, bacterial display (enrichment ratio); higher = better substrate or ligand; peptides without Tyr show the background;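 also: 11-residue human phosphosite peptides and single-mutation variants displayed on the E. coli surface, counted by deep sequencing, each peptide's frequency after selection divided by its frequency in the unselected input library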;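 also: frequency after pTyr selection over input frequency; kinase dosed for 20-30% of maximal phosphorylation in three min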
Sequence (P07332 whole entry, looked up): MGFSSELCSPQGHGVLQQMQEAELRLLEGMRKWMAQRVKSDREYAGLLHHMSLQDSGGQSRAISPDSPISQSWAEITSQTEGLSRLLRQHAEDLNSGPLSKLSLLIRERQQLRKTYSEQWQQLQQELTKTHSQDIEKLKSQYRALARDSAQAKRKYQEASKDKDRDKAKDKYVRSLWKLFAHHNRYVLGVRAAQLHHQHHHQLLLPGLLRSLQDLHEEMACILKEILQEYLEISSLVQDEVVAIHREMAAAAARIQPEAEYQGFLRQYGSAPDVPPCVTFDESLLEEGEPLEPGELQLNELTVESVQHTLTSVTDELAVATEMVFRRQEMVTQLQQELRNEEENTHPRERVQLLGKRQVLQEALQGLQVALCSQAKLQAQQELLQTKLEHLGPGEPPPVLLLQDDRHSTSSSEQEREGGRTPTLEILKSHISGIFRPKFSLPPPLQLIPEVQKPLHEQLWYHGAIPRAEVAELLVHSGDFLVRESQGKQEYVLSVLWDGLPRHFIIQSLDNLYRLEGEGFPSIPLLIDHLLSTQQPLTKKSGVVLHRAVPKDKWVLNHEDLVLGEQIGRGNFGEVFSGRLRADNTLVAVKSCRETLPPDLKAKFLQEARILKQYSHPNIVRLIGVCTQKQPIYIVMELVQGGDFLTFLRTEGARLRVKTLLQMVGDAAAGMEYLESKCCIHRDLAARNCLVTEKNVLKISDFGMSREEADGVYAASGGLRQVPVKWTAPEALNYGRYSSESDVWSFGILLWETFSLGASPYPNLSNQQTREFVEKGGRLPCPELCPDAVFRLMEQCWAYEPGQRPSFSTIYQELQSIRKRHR
True means recorded phosphorylation enrichment is 1 or above; False means it is below 1.

Take a look at these entries with their results.
seq string: GHMYAYDWISI [BEST1_Y227_L224M]
qualitative label: True
//
seq string: RASSSYRETPS [SORBS1_Y79]
qualitative label: False
//
seq string: CSRCFYQLTKL [AR_Y858_R856C]
qualitative label: False
//
seq string: YLENYYDLEKD [MMP3_Y42_K45E]
qualitative label: True
//
seq string: CDIARYIVSQL [MAST2_Y461_P459A]
qualitative label: True

State whether the measured phosphorylation enrichment reaches 1, counting equality as reaching it, for ALTDNYMFLVI [HAGH_Y61_YF]
True

Could you please find out whether SQQTYCRVSNM [ABCD1_Y181_Y181C] has phosphorylation enrichment that meets 1 or exceeds it?
False

// inclusive: phosphorylation enrichment at least 1? input: GDFLSYREFHL [ERBIN_Y1107_S1112L_YF]
False
